Each item that follows carries a reported IC50.
Target entity: angiotensin converting enzyme (Oryctolagus cuniculus, UniProt P12822)
Sequence (P12822 34-1310): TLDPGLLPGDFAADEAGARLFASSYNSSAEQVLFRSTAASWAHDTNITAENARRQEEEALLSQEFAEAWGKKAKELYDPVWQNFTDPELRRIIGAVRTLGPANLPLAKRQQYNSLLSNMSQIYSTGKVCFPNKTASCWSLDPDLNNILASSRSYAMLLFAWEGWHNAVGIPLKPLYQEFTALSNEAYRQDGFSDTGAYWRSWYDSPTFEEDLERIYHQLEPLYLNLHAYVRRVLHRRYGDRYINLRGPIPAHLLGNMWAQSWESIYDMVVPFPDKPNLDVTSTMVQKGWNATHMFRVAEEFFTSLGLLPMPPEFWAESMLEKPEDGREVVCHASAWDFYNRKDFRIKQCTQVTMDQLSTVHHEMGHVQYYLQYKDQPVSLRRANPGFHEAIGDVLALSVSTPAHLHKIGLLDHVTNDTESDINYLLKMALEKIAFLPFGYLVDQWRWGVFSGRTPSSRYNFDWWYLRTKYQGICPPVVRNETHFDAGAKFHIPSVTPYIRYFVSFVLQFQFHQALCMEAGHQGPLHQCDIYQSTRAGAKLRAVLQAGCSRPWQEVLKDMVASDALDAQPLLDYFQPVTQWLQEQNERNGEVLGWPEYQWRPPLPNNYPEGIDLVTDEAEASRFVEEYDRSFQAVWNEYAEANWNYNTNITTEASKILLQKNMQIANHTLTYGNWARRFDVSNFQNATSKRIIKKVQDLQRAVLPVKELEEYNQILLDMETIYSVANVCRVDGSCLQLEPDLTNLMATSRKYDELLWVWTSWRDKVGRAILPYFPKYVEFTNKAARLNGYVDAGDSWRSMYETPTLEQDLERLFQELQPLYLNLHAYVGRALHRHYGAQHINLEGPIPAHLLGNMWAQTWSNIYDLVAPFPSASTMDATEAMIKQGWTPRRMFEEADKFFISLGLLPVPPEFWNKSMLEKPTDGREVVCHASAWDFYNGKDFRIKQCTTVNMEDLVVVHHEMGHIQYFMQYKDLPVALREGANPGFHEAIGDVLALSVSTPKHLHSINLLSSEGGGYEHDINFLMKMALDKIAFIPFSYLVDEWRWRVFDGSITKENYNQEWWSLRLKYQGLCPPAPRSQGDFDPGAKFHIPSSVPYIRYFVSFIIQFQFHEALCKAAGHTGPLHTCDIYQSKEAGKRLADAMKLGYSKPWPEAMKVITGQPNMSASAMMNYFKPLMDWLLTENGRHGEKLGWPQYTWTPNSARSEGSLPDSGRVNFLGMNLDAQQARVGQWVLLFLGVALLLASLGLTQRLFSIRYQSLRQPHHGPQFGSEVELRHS
Where a name gives a salt, the structure may show the parent alone.
Report as a plain number; the unit µM is understood.

Compound: CCOC(=O)[C@H](CCc1ccccc1)N[C@@H](C)C(=O)N1c2ccccc2C[C@H]1C(=O)O.O=C(O)/C=C\C(=O)O [Example 55, Maleate]
Value units: µM
IC50: 0.118

In the following, a different compound is considered.
Task: So what IC50 did CCOC(=O)[C@@H](CCc1ccccc1)N[C@@H](C)C(=O)N1c2ccccc2C[C@H]1C(=O)O [Example 56, Maleate] get with angiotensin converting enzyme (Oryctolagus cuniculus, UniProt P12822)?
Result: 0.9
